- measurement.protocol: in vivo
- condition.context: male, beagle, dog, in vivo, po, 0.25 g/kg
quantity: half-life (h)
Answers are plain numbers, in h.

Solved cases below.
O=C(CC(O)(CC(=O)OCc1ccc(OC2OC(CO)C(O)C(O)C2O)cc1)C(=O)OCc1ccc(OC2OC(CO)C(O)C(O)C2O)cc1)OCc1ccc(OC2OC(CO)C(O)C(O)C2O)cc1 (stereo not shown); 1.38
O=C(CC(O)(CC(=O)OCc1ccc(O[C@@H]2O[C@H](CO)[C@@H](O)[C@H](O)[C@H]2O)cc1)C(=O)O)OCc1ccc(O[C@@H]2O[C@H](CO)[C@@H](O)[C@H](O)[C@H]2O)cc1; 1.56
OCc1ccc(O[C@@H]2O[C@H](CO)[C@@H](O)[C@H](O)[C@H]2O)cc1; 1.9

Shifting focus to the compound that follows.
Enquiry: What measured half-life goes with O=C(O)CC(O)(CC(=O)OCc1ccc(OC2OC(CO)C(O)C(O)C2O)cc1)C(=O)OCc1ccc(OC2OC(CO)C(O)C(O)C2O)cc1 (stereo not shown) ?
Return: 1.18
